# target or system: T1, Mammalian expressed extracellular human RON protein (Gly25 to Thr957) with His-tag (human, UniProt Q04912 25-957)
# T1 construct: Expressed in ExpiCHO cells, purified on nickel; Position of the His-tag is told inconsistently; Written as one chain; also called RON ECD; RON ECD antigen; not shown: His-tag
# T1 sequence: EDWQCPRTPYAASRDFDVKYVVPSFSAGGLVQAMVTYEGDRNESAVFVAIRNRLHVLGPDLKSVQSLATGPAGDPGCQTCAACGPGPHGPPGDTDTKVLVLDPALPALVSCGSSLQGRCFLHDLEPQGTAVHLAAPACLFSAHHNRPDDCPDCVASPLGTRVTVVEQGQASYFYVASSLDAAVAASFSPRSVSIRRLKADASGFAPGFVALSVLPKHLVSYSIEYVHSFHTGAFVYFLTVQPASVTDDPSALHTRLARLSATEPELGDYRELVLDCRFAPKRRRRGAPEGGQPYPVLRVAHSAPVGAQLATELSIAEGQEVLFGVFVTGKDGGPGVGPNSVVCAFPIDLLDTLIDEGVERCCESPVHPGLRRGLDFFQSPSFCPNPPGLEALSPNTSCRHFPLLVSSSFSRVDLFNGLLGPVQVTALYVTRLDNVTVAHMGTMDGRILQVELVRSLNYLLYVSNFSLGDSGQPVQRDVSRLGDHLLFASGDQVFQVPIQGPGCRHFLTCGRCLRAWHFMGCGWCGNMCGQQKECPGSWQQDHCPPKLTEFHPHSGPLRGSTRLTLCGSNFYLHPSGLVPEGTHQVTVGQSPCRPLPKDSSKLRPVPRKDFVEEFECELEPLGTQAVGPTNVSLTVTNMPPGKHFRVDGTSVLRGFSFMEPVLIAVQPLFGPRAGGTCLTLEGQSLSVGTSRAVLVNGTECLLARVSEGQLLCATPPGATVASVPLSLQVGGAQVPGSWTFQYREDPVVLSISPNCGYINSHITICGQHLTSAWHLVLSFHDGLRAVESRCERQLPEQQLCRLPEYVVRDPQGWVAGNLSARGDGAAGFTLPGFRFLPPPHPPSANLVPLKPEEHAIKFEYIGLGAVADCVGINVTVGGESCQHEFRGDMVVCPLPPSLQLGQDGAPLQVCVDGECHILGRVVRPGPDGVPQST
# assay explanation: KinExA, apparent Kd, column 'Kd by Kinexa (nM)' [continued]
measurement type: Kd (nM)
Give your result in nM as a bare value.

| binder | units text | Kd |
| --- | --- | --- |
| 6A9 (antibody, V domains shown, Mouse monoclonal antibody from a hybridoma; kappa light chain; also called Antibody 6A9; anti-RON antibody 6A9) VH: EVKLEESGPGLLKPSQSLSLTCTVTGSSITSDYAWNWIRQFPGNKLEWMGYIGYSVGTSHNPSLKGRISITRDTSKNQFFLHLNSVTTEDTAIYYCARRPLYFYYAMDFWGQGTSVTVSS VL: DIVLTQSPSSLSASLGDRVTITCRASQDISKYLNWYQQKPDGTVKLLIYYTSTLHSGVPSRFSGSGSGTDFSLTITNLEQEDIATYFCQQGNTLPRTFGGGTKLEIK | nM | 8.6 |

Here's the next entry for you.
Prompt line: Query (binder): 3F8 (antibody, V domains shown, Mouse monoclonal antibody from a hybridoma; kappa light chain; also called Antibody 3F8; anti-RON antibody 3F8) VH: EVKLQESGGGLVQPGRSLKLSCVASGFTFSSFWMHWVRQSPEKGLEWVAEIRLKSNNYATHYAESVKGRFTISRDDSKSSVHLQMNNLRTEDTGIYYCIPPYYYTVDYWGQGTSVTVSS VL: DIVLTQTPKVMSTSVGDRVSVTCKASQNVNTNVAWYQQKPGQSPKALIYSASSRYSGVPDRFTGSGSGTDFTLTISNVQSEDLADYFCQQYNTYPLTFAAGTKLELK ; field requested: Kd
Response line: 0.15
